Listed here are molecules together with their documented TGI.
test system: UACC-62 melanoma; experiment: NCI tumour cell line growth inhibition, 48 h

Here is how some molecules turned out for TGI.
[[record]]
molecule = "COc1cccc2c1CCc1c(-c3ccc(F)cc3)cc(-c3ccc4ccccc4n3)nc1-2"
value = "> 100 µM"

[[record]]
molecule = "CN1CC(=O)N(C)c2ncn(Cc3ccccc3)c2C1=O"
value = "> 100 µM"

[[record]]
molecule = "CCOC(=O)CCC(NC(=O)c1ccc(Oc2nc3ccccc3nc2-c2ccccc2)cc1)C(=O)OCC (centres undefined)"
value = "> 100 µM"

[[record]]
molecule = "Cc1cccc2c1C(=O)[C@](C)([C@]1(C)Nc3cccc(C)c3C1=O)N2"
value = "> 100 µM"


The record that follows has no TGI shown yet.
Give the measured TGI of COc1cccc2c1CCc1cc3c(N)nc(N)nc3nc1-2 . 16.7 µM
